biological target: biotinylated human D-SDF-1 (mirror-image CXCL12) (Homo sapiens); experiment: pulldown; settings: 37 C; better than 192-A10-001 in competition
property: Kd (pM)
# number only, unit pM dropped from output

Exercise: Look at this sequence and give its reported Kd. AGCGUGGUGUGAUCUAGAUGUAUUGGCUGAUCCUAGUCAGGUACGCU [193-G2-001 aptamer (D)]
Key: 300

* * *

target: human SDF-1 alpha (CXCL12) (Homo sapiens) (UniProt P48061); assay: SPR; details: L-RNA; 37 C; FIG. 21 cited here is labelled 191-D5-007
Sequence (P48061 22-89): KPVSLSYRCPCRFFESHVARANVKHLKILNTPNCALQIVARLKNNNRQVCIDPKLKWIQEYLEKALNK
property: Kd (nM)
Numbers only; they are read as nM.

Exercise: So what does the record say about Kd for AGCGUGGCGAGGUUAGGGCUAGAAGUCGGUCGACACGCU [191-D5-001 Spiegelmer] ?
Key: 0.8

* * *

molecular target: biotinylated human D-SDF-1 (mirror-image CXCL12) (Homo sapiens); assay: pulldown; conditions: 37 C; same affinity as 190-A3-001
property: pKd
Hey, just a heads up that pKd is the negative log base 10 of the concentration in molar.

Exercise: pKd for GAGAUAGGGGUUAGGGCUUAAAGUCGGCUGAUUCUC [190-A3-004 aptamer (D)] ?
Key: 8.34

* * *

molecular target: biotinylated human D-SDF-1 (mirror-image CXCL12) (Homo sapiens) (UniProt P48061); test: pulldown; conditions: 37 C; somewhat better than 191-D5-001 in competition
Sequence (P48061 22-92): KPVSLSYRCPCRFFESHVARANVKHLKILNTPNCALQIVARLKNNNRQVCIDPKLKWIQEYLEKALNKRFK
property: Kd (nM)
# value in nM; strip the unit string

Exercise: Give the measured Kd of CGGGAGGUUAGGGCUAGAAGUCGGUCCCG [191-D5-007 aptamer (D)] .
Key: 2.2

* * *

biological target: human SDF-1 alpha (CXCL12) (Homo sapiens) (UniProt P48061); experiment: SPR; conditions: L-RNA; 37 C
property: pKd
To interpret pKd, take it as minus log10 of a concentration measured in moles per litre.

Here's what some known entries look like.
| sequence.code | property | reported.result |
| --- | --- | --- |
| GUGCUGCGGGGGUUAGGGCUAGAAGUCGGCCUGCAGCAC [197-B2 Spiegelmer] | pKd | 9.05 |
| GAGAUAGGGGUUAGGGCUUAAAGUCGGCUGAUUCUC [190-A3-004 Spiegelmer] | pKd | 8.33 |
| CGGGAGGUUAGGGCUAGAAGUCGGUCCCG [191-D5-007 Spiegelmer] | pKd | 9.10 |

Attention now shifts to the item below.
Exercise: What pKd value was documented for this sequence, AGCGUGGUGUGAUCUAGAUGUAUUGGCUGAUCCUAGUCAGGUACGCU [193-G2-001 Spiegelmer] ?
Key: 9.30
